So I've got a bunch of molecules here, and I need their pIC50 values.
tested system: PI3K alfa (Homo sapiens, UniProt P42336)
Construct: for the p110-a subunit (with a deletion of the first 20 amino acids); His tag (C); made in house; host or cells: baculovirus; Tn5 (Trichoplusia ni) or TiniPro insect cells
Sequence (P42336 with tags, fused parts or gaps limits assumed): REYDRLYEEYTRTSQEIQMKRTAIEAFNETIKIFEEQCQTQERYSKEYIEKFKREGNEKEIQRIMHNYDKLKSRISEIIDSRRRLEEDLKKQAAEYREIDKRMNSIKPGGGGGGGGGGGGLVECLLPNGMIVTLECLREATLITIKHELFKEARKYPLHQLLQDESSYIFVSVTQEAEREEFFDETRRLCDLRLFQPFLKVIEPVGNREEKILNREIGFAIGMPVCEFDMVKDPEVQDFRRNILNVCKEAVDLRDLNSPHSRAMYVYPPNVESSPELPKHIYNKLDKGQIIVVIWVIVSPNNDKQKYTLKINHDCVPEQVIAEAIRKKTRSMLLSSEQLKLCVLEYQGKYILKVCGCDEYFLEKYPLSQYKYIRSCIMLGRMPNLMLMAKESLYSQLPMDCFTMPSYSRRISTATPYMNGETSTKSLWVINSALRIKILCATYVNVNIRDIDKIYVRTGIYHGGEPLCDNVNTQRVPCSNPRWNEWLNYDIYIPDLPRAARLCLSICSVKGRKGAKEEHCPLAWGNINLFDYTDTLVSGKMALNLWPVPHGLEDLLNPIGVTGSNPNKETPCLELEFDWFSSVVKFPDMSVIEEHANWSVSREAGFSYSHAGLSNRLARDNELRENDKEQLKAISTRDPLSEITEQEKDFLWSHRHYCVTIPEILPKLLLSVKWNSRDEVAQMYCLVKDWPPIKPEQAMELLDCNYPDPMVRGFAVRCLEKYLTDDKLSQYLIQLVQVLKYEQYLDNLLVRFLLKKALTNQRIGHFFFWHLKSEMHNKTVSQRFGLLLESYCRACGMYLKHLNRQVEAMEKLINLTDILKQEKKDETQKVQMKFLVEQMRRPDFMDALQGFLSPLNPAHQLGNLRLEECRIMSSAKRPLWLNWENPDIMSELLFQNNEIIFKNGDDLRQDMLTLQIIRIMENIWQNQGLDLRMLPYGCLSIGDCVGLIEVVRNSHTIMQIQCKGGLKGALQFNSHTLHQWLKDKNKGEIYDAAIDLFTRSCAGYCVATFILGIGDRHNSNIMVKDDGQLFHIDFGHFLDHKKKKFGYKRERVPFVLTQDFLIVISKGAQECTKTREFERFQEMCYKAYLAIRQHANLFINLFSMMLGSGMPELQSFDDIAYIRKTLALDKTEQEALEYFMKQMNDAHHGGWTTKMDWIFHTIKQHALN
test summary: PI3 kinase assay (Kinase-Glo luminescence), PI3K alfa
Assay type: biochemical
experimental conditions: read-out: IC50 (μm) PI3K-alfa
Procedure: In a more preferred assay, the kinase reaction is performed in a final volume of 10 μL per well of a low volume non binding CORNING, 384 well black plate (Cat. No. #3676). The final concentrations of ATP and phosphatidyl inositol (PI) in the assay are 1 μM and 10 μg/mL respectively. […] […] is determined by a four parameter curve fitting routine that comes aloneg with “excel fit”. […] Alternatively, IC50 values are calculated using idbsXLfit model 204, which is a 4 parameter logistic model. […]
Just so you know, pIC50 here is -log10 of the concentration in molar units; reply with that number alone.

Look at this molecule and give its reported pIC50. CCOC(=O)c1cc(-c2ccc3ncc(-c4ccc(OC)c(OC)c4)n3n2)ccc1OC [Example 8]
8.22

Look at this molecule and give its reported pIC50. CS(=O)(=O)c1ccc(-c2cnc3ccc(-c4cnc(N)c(C(F)(F)F)c4)nn23)cc1 [Example 18]
8.02

Look at this molecule and give its reported pIC50. CC(C)N1CCC(Oc2ccc(-c3cnc4ccc(-c5cnc(N)c(C(F)(F)F)c5)nn34)cn2)CC1 [Example 29]
8.15

Look at this molecule and give its reported pIC50. NC(=O)c1ccc(-c2ccc3ncc(-c4ccc(C(N)=O)cc4)n3n2)cc1 [Example 7]
7.85

Hey, just so you know, these numbers are from patent US20100311729A1.
